Values from ChEMBL document CHEMBL1129219

Assayed System: Histamine H1 receptor (Homo sapiens, UniProt P35367)
Sequence (P35367 whole entry): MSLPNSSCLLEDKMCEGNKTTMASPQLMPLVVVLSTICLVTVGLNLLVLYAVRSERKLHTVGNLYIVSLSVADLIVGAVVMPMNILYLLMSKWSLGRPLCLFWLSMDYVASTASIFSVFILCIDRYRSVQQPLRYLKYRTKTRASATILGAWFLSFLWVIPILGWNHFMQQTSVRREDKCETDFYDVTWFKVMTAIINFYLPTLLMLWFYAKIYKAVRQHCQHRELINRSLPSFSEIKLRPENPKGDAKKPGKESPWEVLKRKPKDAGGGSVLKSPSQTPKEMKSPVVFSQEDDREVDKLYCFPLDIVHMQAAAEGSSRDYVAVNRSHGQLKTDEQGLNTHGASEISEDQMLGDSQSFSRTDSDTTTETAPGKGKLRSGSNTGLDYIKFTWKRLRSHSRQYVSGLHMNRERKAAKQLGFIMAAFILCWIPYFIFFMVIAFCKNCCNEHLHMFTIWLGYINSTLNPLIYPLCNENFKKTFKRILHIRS
Test Summary: Antagonistic activity against histamine H1 receptor
Just a reminder that ties go to condition not met: only IC50 strictly below 400 nM counts as condition met.

Check out these entries, answers already filled in.
COc1cc(C(=O)N2CCC(CCN3CCC(C(=O)c4nc5ccccc5n4Cc4ccccn4)CC3)(c3ccccc3)C2)cc(OC)c1OC (configuration not stated) ... condition met
COc1cc(C(=O)N2CCC(CCN3CCC(C(=O)c4nc5ccccc5n4CCCCOc4ccccc4C(=O)O)CC3)(c3ccccc3)C2)cc(OC)c1OC (configuration not stated) ... condition not met
COc1cc(C(=O)N2CCC(CCN3CCC(C(=O)c4nc5ccccc5n4Cc4cccnc4)CC3)(c3ccccc3)C2)cc(OC)c1OC (configuration not stated) ... condition not met
COc1cc(C(=O)N2CCC(CCN3CCC(C(=O)c4nc5ccccc5n4CCOCc4ccco4)CC3)(c3ccccc3)C2)cc(OC)c1OC (configuration not stated) ... condition not met
COc1cc(C(=O)N2CCC(CCN3CCC(C(=O)c4nc5ccccc5n4Cc4ccc(F)cc4)CC3)(c3ccc(F)cc3F)C2)cc(OC)c1OC (configuration not stated) ... condition not met

IC50 under 400 nM? Item: CCOCCn1c(C(=O)C2CCN(CCC3(c4ccc(F)cc4)CCN(Cc4cc(OC)c(OC)c(OC)c4)C3=O)CC2)nc2ccccc21 (configuration not stated) condition met

Strictly below 400 nM: is that where IC50 of COc1ccc(C(=O)N2CCC(CCN3CCC(C(=O)c4nc5ccccc5n4Cc4ccc(F)cc4)CC3)(c3ccc4c(c3)OCO4)C2)c(OC)c1OC (configuration not stated) sits? condition met
